Reported inhibition of growth at […] by item:
Tested on: Fusarium culmorum
method: Activity against Fusarium culmorum in the microtiter test (Fusacu)
Assay type: cell-based
cond: Fusarium culmorum, 168 h; single active compound, 0.25 ppm; read-out: Observed activity
parameter: inhibition of growth at […] (%)

OC(Cc1ccccc1Cl)(Cn1nc[nH]c1=S)C1(Cl)CC1 (stereo not shown)    0
Fc1ccc([C@]2(Cn3cncn3)O[C@H]2c2ccccc2Cl)cc1 (racemic)    0
O=C(NCCc1ncc(C(F)(F)F)cc1Cl)c1ccccc1C(F)(F)F    0
CC1(C)CCC(Cc2ccc(Cl)cc2)C1(O)Cn1cncn1 (stereo not shown)    37

====

Tested on: Fusarium culmorum
method: Activity against Fusarium culmorum in the microtiter test (Fusacu)
Assay type: cell-based
cond: Fusarium culmorum, 168 h; single active compound, 16 ppm; read-out: Observed activity
parameter: inhibition of growth at 16 ppm (%)

CCCC1COC(Cn2ncnc2S)(c2ccc(Cl)cc2Cl)O1 (stereo not shown)    7
CCCC(Cn1ncnc1S)c1ccc(Cl)cc1Cl (stereo not shown)    6
OC(Cn1cncn1)(c1ccc(F)cc1)c1ccccc1F (stereo not shown)    29
CC1(C)CCC(Cc2ccc(Cl)cc2)C1(O)Cn1ncnc1S (stereo not shown)    3

====

Test system: Fusarium culmorum
method: Activity against Fusarium culmorum in the microtiter test (Fusacu)
Assay type: cell-based
cond: Fusarium culmorum, 168 h; single active compound, 4 ppm; read-out: Observed activity
Reported inhibition of growth at 4 ppm by item:
parameter: inhibition of growth at 4 ppm

CCCCCCCCc1c(CC)nc2ncnn2c1N    2%
Cc1cc(C)nc(Nc2ccccc2)n1    3%
O=c1c2cc(F)ccc2nc(-n2cncn2)n1-c1ccc(Cl)cc1Cl    0%
O=C(Nc1ccccc1-c1ccc(Cl)cc1)c1cccnc1Cl    0%

====

System: Phytophthora infestans
method: microbe, parasite or virus in culture
Type: cell-based
cond: Phytophthora infestans, 168 h, read-out: Observed activity
parameter: inhibition of growth at 1 ppm

COC(=O)NC(=S)Nc1ccccc1NC(=S)NC(=O)OC [thiophanate-methyl, thiophanate methyl]    7%
CC1COC(Cn2ncnc2S)(c2ccc(Oc3ccc(Cl)cc3)cc2Cl)O1 (centres unmarked)    8%
CC1(C)CC/C(=C\c2ccc(Cl)cc2)C1(O)Cn1ncnc1S (centres unmarked)    6%
CO/N=C(/C(=O)OC)c1ccccc1COc1ccccc1C    47%
COCC(=O)N(c1c(C)cccc1C)C(C)C(=O)OC (centres unmarked) [metalaxyl]    5%

Values compiled from patent US20120088665A1.
